B1: ZMYND11 (parent)
chain: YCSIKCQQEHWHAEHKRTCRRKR

- Variants of: B1
- Procedure summary: protein stability index of a GFP-peptide fusion (GPS, HEK-293T) (PSI 1-6); higher = more stable;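 note: lentivirally expressed fusions sorted by FACS into six bins by GFP to DsRed ratio, PSI derived from sequencing read proportions per bin multiplied by bin number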
- Condition summary: c terminus: native
Assay endpoint: protein stability index
Returns: the value as a bare number; no unit string appended.

Look over these answered cases.
1. K5A
2.09
2. R21F
2.45
3. W11G
4.05

Request: Identify the reported protein stability index for the following entry. `R21A`
Result: 2.2

Request: Tell me measured protein stability index for `H15Q` please.
Result: 2.06

Request: Given `C6Y` , respond with its protein stability index.
Result: 2.07

Request: Let me know recorded protein stability index for `Y1V` , thanks.
Result: 3.71

Request: Tell me its protein stability index given `E9W` as the entry.
Result: 2.37
